Test target: T1, human CD3e/g (human, UniProt P07766 23-126; P09693 23-116)
T1 construct: Bought soluble protein; also called hCD3e/g; human CD3e/g (Acro CDD-C52W4)
T1 sequence (P07766 23-126, chain 1 of 2): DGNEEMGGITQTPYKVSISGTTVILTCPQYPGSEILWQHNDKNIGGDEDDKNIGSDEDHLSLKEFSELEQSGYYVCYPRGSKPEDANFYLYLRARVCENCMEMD
T1 sequence (P09693 23-116, chain 2 of 2): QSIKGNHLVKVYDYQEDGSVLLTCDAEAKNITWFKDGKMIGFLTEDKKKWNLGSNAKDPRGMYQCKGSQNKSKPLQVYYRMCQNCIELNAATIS
Test method notes: SPR (Carterra LSA), mAb on chip
Measured metric: pKd
Answers are plain numbers, as −log10 of the molar value.

Please review the entries below; each comes with its answer.
mAb 259 (antibody, V domains shown, VH and VL only) VH: EVLLLESGGGLVQPGGSLRLSCAASGFTFRSSSMTWVRQAPGKGLEWVSGIRGSGGRTYDAESVKGRFTISRDISKNTLYLQMNSVRAEDTAEYYCAKLYDYYNDYMDVWGKGTTVTVSS VL: SYELTQPLSVSVALGQTARITCGGNNIGSKNVHWYQQKPGQAPVLVIYRDSNRPSGIPERFSGSNSGNTATLTISRAQAGDEADYYCQVWDSSTAVFGGGTQLTAL : 7.89
mAb 55 (antibody, V domains shown, VH and VL only) VH: QVQLEQSGAEVKKPGASVKVSCKTSGYIFANYDINWVRQATGQGLEWMGWMNPKSGKAGYAQKFQGRVTMTSNTPINTAYMELSSLRSEDTAVYYCAREGHYDFWRGFYSFDYWGQGILVTVSS VL: DIQMTQSPSSLSASVGDRVTITCRASQGIRNDLGWYQQKPGKAPKRLIYTASSLQSGVPSRFSGSGSGTEFTLTISSLQPEDFATYFCLQYNTYPYTFGQGTKLEIK : 7.07

binder mAb 260 (antibody, V domains shown, VH and VL only) VH: EVQLLESGGGLVQPGGSLRLSCVASGFTFRSSSMAWVRQAPGKGLEWVSGIRGSGGRTYDAESVKGRFIISRDTSKNTLYLQMNSLRGEDTAEYFCAKLYDYYNDYMDVWGKGTTVTVSS VL: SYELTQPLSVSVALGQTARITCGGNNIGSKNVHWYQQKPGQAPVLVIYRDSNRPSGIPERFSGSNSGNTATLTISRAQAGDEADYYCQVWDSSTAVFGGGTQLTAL , pKd observed: 8.38
